Entry source: PubChem BioAssay

- protocol_text: forskolin-driven CRE-LacZ activity in PC12 – cell-based, CRE-LacZ reporter, forskolin-stimulated, primary screen (AID 1146);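 note: PC12 cells with 6xCRE LacZ reporter stimulated by forskolin 10 µM; beta-galactosidase reporter signal reflecting CREB driven transcription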
- test_conditions: luminescence, 4.5 h, higher = more signal, called active from +8 up or from −8 down
Listed below: z-score values for each entry.
Give your answer as a number; write no unit.

Completed entries (count: 2):
>>> value("COCCOC(=O)N1C(=O)[C@@]2(c3ccccc31)[C@H](c1ccc(O)cc1)N1[C@H](c3ccccc3)[C@H](c3ccccc3)OC(=O)[C@H]1[C@@H]2C(=O)N1CCCCCCC1")
-0.0911
>>> value("COC(=O)[C@]1(CCC(=O)OC(C)(C)C)N=C(c2ccc(OCCCO)cc2)O[C@@H]1c1ccccc1N=[N+]=[N-]")
0.154

Exercise: Name the reported z-score value associated with the compound COc1ccc([Si](C)(C)[C@@H]2[C@@H](CC(=O)N3CCC[C@H]3CO)O[C@]3(C(=O)N(Cc4ccc(N5CCOC5=O)cc4)c4ccccc43)[C@H]2C)cc1
Solution: -1.2

====

Listed below: composite z-score values for each entry.
- assay_target: Alpha-bungarotoxin (Bungarus multicinctus)
- protocol_text: compounds binding labelled alpha-BTX control protein – biochemical, small-molecule microarray, Alexa647 label, 635/667 nm fluorescence, artefact control for SMM control protein annotation, profiling panel (AID 1117)
- test_conditions: alpha-BTX-A647 binding fluorescence, higher = more signal
Give your answer as a number; write no unit.

>>> value("O=C1C2C=CC(C(O)C3CCCCC3)N(n3cnnc3)C2C(=O)N1Cc1ccccc1 (stereo not drawn)")
0.496
>>> value("CCCCCC1=C2CNC(Cc3ccccc3)(C(=O)OC)C=C2C(C)C1=O (stereo not drawn)")
0.175
>>> value("CCCCCCc1nc(Cc2cc(OC)c(OC)c(OC)c2)cc2c1[Si](C(C)C)(C(C)C)O[C@H]2c1ccccc1")
0.889
>>> value("NC(=O)NCC#Cc1ccc2c(c1)[C@]1(C(=O)N2)[C@H](c2ccc(OCCO)cc2)N2[C@H](c3ccccc3)[C@H](c3ccccc3)OC(=O)[C@H]2[C@@H]1C(=O)O")
2.44
>>> value("O=C1NC(=O)C2C1C=CC(C(O)c1ccc([N+](=O)[O-])cc1)N2Nc1ccccn1 (stereo not drawn)")
-0.011
>>> value("CCCCC(O)C1C=CC2C(=O)N(c3ccccc3)C(=O)C2N1Nc1ccc(C#N)cc1 (stereo not drawn)")
1.01
>>> value("[N-]=[N+]=NCc1ccccc1[C@@H]1OC(c2ccc(OCCCO)cc2)=N[C@]1(Cc1ccccc1N=[N+]=[N-])C(=O)O")
1.55

// below: composite z-score requested for another molecule
Exercise: Name the reported composite z-score value associated with the molecule COCCOC(=O)N1C(=O)[C@@]2(c3cc(C#CCC(C(=O)OC)C(=O)OC)ccc31)[C@H](C(=O)Nc1nc3ccccc3s1)[C@H]1C(=O)O[C@H](c3ccccc3)[C@H](c3ccccc3)N1[C@@H]2c1ccc(O)cc1
Solution: 1.63

====

- assay_target: Fibroblast growth factor 10 (Homo sapiens)
- protocol_text: compounds binding fibroblast growth factor 10 – biochemical, small-molecule microarray, 635 nm fluorescence, primary screen (AID 1102)
- test_conditions: FGF10 binding, fluorescence 635 nm, higher = more signal
measured_parameter: composite z-score

Completed entries (count: 5):
>>> value("CC(C)NC(=O)[C@@]1(c2ccc([N+](=O)[O-])cc2)CC(=O)N(CC23CC4CC(CC(C4)C2)C3)[C@@H]1c1ccc(CO)cc1")
0.911
>>> value("COC(=O)C(CC#Cc1ccc2c(c1)[C@]1(C(=O)N2)[C@H](c2ccc(OCCO)cc2)N2[C@H](c3ccccc3)[C@H](c3ccccc3)OC(=O)[C@H]2[C@@H]1C(=O)N1CCCCCCC1)C(=O)OC")
1.18
>>> value("CN1C(=O)[C@@H]2[C@@H](CC(COc3ccccc3)=C3[C@@H](CCc4ccccc4)OB(O)C[C@@H]32)C1=O")
0.311
>>> value("C=C1C(=O)C=C2CN(C(=O)c3ccccc3)[C@@](Cc3ccc(OC)cc3)(C(=O)OC)[C@@H]12")
1.38
>>> value("CC1CC/C=C\\[C@H]2OC34C=CCN(C(C)(C)C)C(=O)[C@H]3N(CCCO)C(=O)[C@@H]4C2C(=O)O1 (stereo partly specified)")
-0.0987

// below: composite z-score requested for another compound
Exercise: Name the reported composite z-score value associated with the compound O=C1O[C@@H](c2ccccc2)[C@@H](c2ccccc2)N2[C@@H](c3ccc(OCCO)cc3)[C@]3(C(=O)Nc4ccc(C#CCCO)cc43)[C@@H](C(=O)O)[C@H]12
Solution: 1.41

====

Listed below: composite z-score values for each entry.
- protocol_text: probe aCHRDL2 binding to arrayed compounds – biochemical, biotinylated probe, 635/667 nm fluorescence, primary screen (AID 1100)
- test_conditions: small-molecule microarray, higher = more signal
Give your answer as a number; write no unit.

Completed entries (count: 10):
>>> value("Cc1ccccc1C(O)C1C=CC2C(=O)N(c3ccccc3)C(=O)C2N1Nc1ccccc1 (stereo not given)")
1.25
>>> value("C=C(CCCC)/C(=C/C[C@@H](OC(C)=O)c1ccc(CO)o1)c1cnc2ccccc2c1")
-0.428
>>> value("O=C1N(Cc2ccccc2)c2ccccc2C[C@@]12COC(c1ccc(OCCCO)cc1)=N2")
1.12
>>> value("COCCCNC(=O)[C@@]1(CCS(=O)(=O)c2ccccc2)COC(c2ccc(OCCCO)cc2)=N1")
1.47
>>> value("COCCCNC(=O)[C@@H]1c2ccccc2C(=O)N(Cc2ccc(OC(F)(F)F)cc2)[C@H]1c1ccc(CO)cc1")
0.215
>>> value("COc1ccc([Si](C)(C)[C@@H]2[C@@H](CC(=O)N3Cc4ccccc4C[C@H]3CO)O[C@]3(C(=O)N(Cc4cccc(N5CCOC5=O)c4)c4ccccc43)[C@H]2C)cc1")
-0.562
>>> value("C=CC[C@@]1(C(=O)OC)N=C(c2ccc(OCCCO)cc2)O[C@@H]1c1ccccc1N=[N+]=[N-]")
1
>>> value("N#Cc1ccc(C(O)C2C=CC3C(=O)NC(=O)C3N2Nc2ccc(Cl)cc2Cl)cc1 (stereo not given)")
1.13
>>> value("CCCCC(O)C1C=CC2C(=O)N(c3ccccc3)C(=O)C2N1Nc1ccccc1 (stereo not given)")
0.91
>>> value("C[N+](C)(C)CCCCNC(=O)[C@H]1C[C@H]2C(=O)N[C@@H](Cc3ccccc3)C(=O)N2[C@H]1c1cccc(OCCO)c1")
-0.17

Exercise: Name the reported composite z-score value associated with the compound C=CCC(OC(C)=O)[C@@H]1[C@@H](N(Cc2ccc(-c3cccc(C(F)(F)F)c3)o2)C(=O)Cc2ccc(F)cc2)c2cc(OCCCO)ccc2N1C(=O)Cc1ccc2ccccc2c1 (stereo not given in full)
Solution: 0.228

Exercise: Also check CCOC(=O)C[C@H]1[C@H](OC(=O)c2cc3ccccc3oc2=O)[C@@H](NC(=O)CC(C)C)c2cc(OCCCO)ccc2N1C(=O)Cc1ccc(OC)cc1
Solution: -0.309

Exercise: Also check C=C(CCCC)C(=O)CC[C@@H](OC(=O)c1ccccc1-c1ccccc1C(=O)O)c1ccccc1OCCO
Solution: -0.543

Exercise: Also check CCOC(=O)C[C@H]1[C@H](OC(=O)c2ccccc2-c2ccccc2)[C@@H](NC(=O)C2CCCCC2)c2cc(OCCCO)ccc2N1C(=O)c1ccc2ccccc2n1
Solution: -0.334

Exercise: Also check CC(C)NC(=O)[C@@H]1c2ccccc2C(=O)N(Cc2ccc(OC(F)(F)F)cc2)[C@H]1c1ccc(CO)cc1
Solution: 0.696

Exercise: Also check C=C(COC)/C(=C/C[C@@H](OC(C)=O)c1ccccc1OCCO)c1cnc2ccccc2c1
Solution: -0.112

Exercise: Also check CC(C)=C1C(=O)C(c2ccccc2)=C2CN3C(=O)N(CCc4ccccc4)C(=O)[C@]3(C)[C@H]21
Solution: 1.13

Exercise: Also check CC(=O)c1ccc(C(O)C2C=CC3C(=O)N(c4ccccc4)C(=O)C3N2Nc2ccc(C(C)C)cc2)cc1 (stereo not given)
Solution: 0.865

Exercise: Also check COC(=O)C(CC#Cc1ccc2c(c1)[C@]1(C(=O)N2)[C@H](C(=O)N2CCc3cc(OC)c(OC)cc3C2)[C@H]2C(=O)O[C@H](c3ccccc3)[C@H](c3ccccc3)N2[C@@H]1c1ccccc1OCCO)C(=O)OC
Solution: 0.623

Exercise: Also check N#Cc1ccc(NN2C(C(O)C3CC=CCC3)C=CC3C(=O)N(c4ccccc4)C(=O)C32)cc1 (stereo not given)
Solution: 0.728

Exercise: Also check [N-]=[N+]=NCc1ccccc1[C@@H]1OC(c2ccc(OCCCO)cc2)=N[C@]1(Cc1ccccc1N=[N+]=[N-])C(=O)NCC(O)CO (stereo not given in full)
Solution: 0.98

====

- protocol_text: optical density change of DRC41 E. coli – strain DRC41, OD650, 24 h, E. coli filamentation project, primary screen (AID 1093);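 note: MC1000 strain lacking acrAB efflux and sulA so SOS filamentation is blocked; test concentration not given here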
- test_conditions: E. coli DRC41 growth, higher = more signal, called active from +8 up or from −8 down
Activity calls are given as the source filed them.
measured_parameter: z-score

Completed entries (count: 5):
>>> value("O=C1O[C@H](Cc2ccccc2)[C@@H]2[C@H]3C=CCCC=C3CN2[C@H]1Cc1ccc(O)cc1")
"0.222 (inactive)"
>>> value("[N-]=[N+]=Nc1ccccc1C[C@]1(C(=O)N2CCOCC2)N=C(c2ccc(OCCCO)cc2)O[C@H]1c1ccccc1N=[N+]=[N-]")
"1.2 (inactive)"
>>> value("O=C1NC(=O)C2C1C=CC(C(O)c1ccc(B(O)O)cc1)N2Nc1ccc(Cl)cc1Cl (stereo not given)")
"-0.758 (inactive)"
>>> value("COC(=O)[C@@]1(Cc2ccccc2)[C@H]2c3cc(C(=O)N4CCCC4)n(Cc4ccc(OC)c(OC)c4)c3C[C@H]2CN1C(=O)c1ccccc1")
"-0.0046 (inactive)"
>>> value("COc1cc(CO)cc(I)c1O[C@H]1C=C(C(=O)NCCO)C[C@@H]2O[C@H]12")
"-0.0097 (inactive)"

Exercise: Name the reported z-score value associated with the compound COCCCNC(=O)[C@@]1(CCS(=O)(=O)c2ccccc2)COC(c2ccc(OCCCO)cc2)=N1
Solution: 1.52 (inactive)

Exercise: Also check CCOC(=O)C1=C[C@@H](C(C)(C)C)N(S(=O)(=O)c2ccc(C)cc2)[C@H]1c1ccc(C#N)cc1
Solution: 0.0374 (inactive)

Exercise: Also check O=C1C=C(c2ccccc2)C(=O)C2=C1CC([C@H]1Oc3ccccc3S(=O)(=O)N3CCC[C@@H]13)=CC2
Solution: 0.542 (inactive)

Exercise: Also check CCCCCC1=C2CNC(Cc3ccccc3)(C(=O)OC)C=C2C(C)C1=O (stereo not given)
Solution: -0.791 (inactive)
